assay_summary: chemical genetic growth profiling, strain panel (AID 1159580);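 also: tested at 20 µM; growth read once vehicle control cultures reached saturation at 30 °C; 1 = growth at the plate median or of vehicle wells; lower values mean less growth of the strain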
particulars: S. cerevisiae deletion strains, growth OD, locus YKL193C, strain SDS22
In all, about 5,500 compounds went through this assay and about 2,000 (36%) were called active. About 18% were inconclusive and are not listed. Rule as the data show it: active = normalized growth mostly below about 0.91 (no sharp cut-off); inconclusive = no clear call, values can overlap the other calls; inactive = mostly above about 0.92. Some of the results follow.
Labels: 1.0 for active, 0.0 for inactive

{"smiles_str": "Cc1ccc(Nc2ccnc3cc(Cl)ccc23)cc1F", "discrete_label": 0.0}
{"smiles_str": "CCOC(=O)c1ccc2nc(N=CNO)sc2c1", "discrete_label": 0.0}
{"smiles_str": "O=C(c1csc(-c2ccc(Cl)cc2)c1)N1CCCCC1", "discrete_label": 0.0}
{"smiles_str": "CC(C)c1ccc(COC(=O)Nc2ccc(CSc3ccc(Cl)cc3)o2)cc1", "discrete_label": 0.0}
{"smiles_str": "Cc1cc(C(=O)NNS(=O)(=O)c2ccc(F)c(Cl)c2)nn1-c1c(Cl)cc(Cl)cc1Cl", "discrete_label": 0.0}
{"smiles_str": "O=C(/C=C/c1ccc2c(c1)OCO2)Nc1ccc(Br)cc1", "discrete_label": 0.0}
{"smiles_str": "Cc1cc(C)cc(Sc2ccc3nnc(-c4ccccc4)n3n2)c1", "discrete_label": 0.0}
{"smiles_str": "CC(C)(C)c1ccc(N/N=C(\\C#N)C(N)=O)cc1", "discrete_label": 1.0}
{"smiles_str": "Cc1ccc(S(=O)(=O)NC(=O)Nc2ccc(Sc3ccccc3)nc2Sc2ccccc2)cc1", "discrete_label": 0.0}
{"smiles_str": "CC1(C)CC(=O)C=C(Sc2nc3ccccc3o2)C1", "discrete_label": 0.0}
{"smiles_str": "C/C(Cc1nnn(-c2cc(C)on2)n1)=N/OC(=O)Nc1ccc(Cl)cc1", "discrete_label": 0.0}
{"smiles_str": "Cc1nn(C)c(C(=O)Sc2ccc(OC(F)(F)F)cc2)c1[N+](=O)[O-]", "discrete_label": 0.0}
{"smiles_str": "N#C/C(=N/Nc1ccc(F)cc1)S(=O)(=O)c1ccc(Cl)cc1", "discrete_label": 0.0}
{"smiles_str": "N#C/C(=N/Nc1ccccc1)C(=O)c1ccccc1OC(F)(F)F", "discrete_label": 0.0}
{"smiles_str": "O=C(NCc1ccc(Cl)c(Cl)c1)c1cccnc1OCC(F)(F)F", "discrete_label": 0.0}
{"smiles_str": "COc1cccc(C2CCN(C(=O)c3cccc4ccccc34)CC2)c1", "discrete_label": 0.0}
{"smiles_str": "Cc1cccc(NC(=S)N/N=C\\c2ccc(F)cc2)c1", "discrete_label": 0.0}
{"smiles_str": "Fc1cc(I)ccc1Nc1ccnc2cc(Cl)ccc12", "discrete_label": 0.0}

* * *

assay_summary: chemical genetic growth profiling, strain panel (AID 1159580);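 also: tested at 20 µM; growth read once vehicle control cultures reached saturation at 30 °C; 1 = growth at the plate median or of vehicle wells; lower values mean less growth of the strain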
particulars: S. cerevisiae deletion strains, growth OD, locus YLR027C, strain aat2, stronger effect = lower value
Hit rate of the full screen: of about 5,500 compounds, about 2,000 (36%) were called active. Not shown: some 18% with an inconclusive outcome. Some of the results follow.
reported_property: normalized growth

{"compound": "CC[C@@H](C(=O)C(C)[C@@H](O)[C@H](C)CCc1ccc(C)c(O)c1C(=O)O)C1OC(CC)(C2CC[C@](O)(CC)[C@H](C)O2)C[C@@H]1C (stereo not given in full)", "value_observed": "1.05 (inactive)"}
{"compound": "O=C(Oc1cc(OC(=O)c2ccccc2)c2c(c1)O[C@H](c1ccc(OC(=O)c3ccccc3)c(OC(=O)c3ccccc3)c1)[C@@H](OC(=O)c1ccccc1)C2)c1ccccc1", "value_observed": "0.995 (inactive)"}
{"compound": "O=C(Oc1cc(O)cc2c1C[C@@H](OC(=O)c1cc(O)c(O)c(O)c1)[C@@H](c1cc(O)c(O)c(O)c1)O2)c1cc(O)c(O)c(O)c1", "value_observed": "0.996 (inactive)"}
{"compound": "C=C[C@@](C)(O)CCC1C(=C)CCC2[C@@](C)(CO)CCC[C@]12C (stereo not given in full)", "value_observed": "0.997 (inactive)"}
{"compound": "Cc1ncc(CNC(=O)N(CCCl)N=O)c(N)n1", "value_observed": "0.99 (inactive)"}
